target: T1, human transferrin receptor (recombinant, for surface plasmon resonance) (human, UniProt P02786 89-760); assay: SPR 25C
T1 construct: also called huTfR; human transferrin receptor-biotinylated
T1 sequence (P02786 89-760 limits assumed): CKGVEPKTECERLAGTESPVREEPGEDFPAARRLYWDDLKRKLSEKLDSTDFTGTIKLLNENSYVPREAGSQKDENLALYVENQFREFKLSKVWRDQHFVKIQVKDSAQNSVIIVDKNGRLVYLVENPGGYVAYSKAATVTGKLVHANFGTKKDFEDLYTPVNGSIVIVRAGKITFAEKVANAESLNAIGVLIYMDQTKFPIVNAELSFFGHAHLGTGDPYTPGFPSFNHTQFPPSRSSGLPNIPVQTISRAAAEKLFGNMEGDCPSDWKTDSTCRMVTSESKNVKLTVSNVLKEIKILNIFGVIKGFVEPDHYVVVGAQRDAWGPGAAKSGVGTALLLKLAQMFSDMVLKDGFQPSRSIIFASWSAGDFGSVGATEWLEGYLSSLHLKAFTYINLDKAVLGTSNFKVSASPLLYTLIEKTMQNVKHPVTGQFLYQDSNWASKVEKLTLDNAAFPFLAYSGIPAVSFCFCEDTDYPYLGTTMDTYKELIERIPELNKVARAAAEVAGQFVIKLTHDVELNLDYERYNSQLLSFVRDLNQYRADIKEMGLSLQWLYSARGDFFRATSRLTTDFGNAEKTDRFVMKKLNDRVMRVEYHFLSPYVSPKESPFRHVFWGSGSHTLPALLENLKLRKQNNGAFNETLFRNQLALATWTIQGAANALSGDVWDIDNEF
Value Type: koff

2/99 VH6/VL7 (antibody, V domains shown) VH: QQLVETGGGLIQPGGSLRLSCAASGFSLSSYAMSWVRQAPGKGLEWIGYIWSGGSTDYADSVKGRFTISRDNSKNTLYLQMNSLRAEDTAVYYCARRYGTSYPDYGDANGFDPWGQGTLVTVSS VL: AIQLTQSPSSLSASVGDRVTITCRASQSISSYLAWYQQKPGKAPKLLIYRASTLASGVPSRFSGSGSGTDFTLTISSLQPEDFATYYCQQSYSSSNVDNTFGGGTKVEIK; 0.00563 s⁻¹
2/99 VH9/VL15 (antibody, V domains shown) VH: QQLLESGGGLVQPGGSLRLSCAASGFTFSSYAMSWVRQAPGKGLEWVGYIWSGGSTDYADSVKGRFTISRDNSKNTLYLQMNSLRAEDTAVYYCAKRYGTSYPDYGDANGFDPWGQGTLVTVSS VL: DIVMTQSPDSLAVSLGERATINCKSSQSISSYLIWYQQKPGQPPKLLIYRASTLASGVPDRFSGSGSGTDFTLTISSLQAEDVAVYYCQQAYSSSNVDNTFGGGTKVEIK; 0.00739 s⁻¹
2/99 VH6/VL15 (antibody, V domains shown) VH: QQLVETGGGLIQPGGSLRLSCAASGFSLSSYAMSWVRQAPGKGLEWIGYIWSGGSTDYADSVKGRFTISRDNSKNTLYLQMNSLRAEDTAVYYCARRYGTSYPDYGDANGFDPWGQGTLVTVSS VL: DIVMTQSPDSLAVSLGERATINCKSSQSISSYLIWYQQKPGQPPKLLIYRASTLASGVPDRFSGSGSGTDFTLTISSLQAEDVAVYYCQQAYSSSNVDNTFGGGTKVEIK; 0.00421 s⁻¹

All values here come from patent US20180291110A1.
